Test: Pharmacokinetic validation in vivo, formulation delivered to duodenum, oxytocin serum ELISA
Details: female, Yorkshire, pig, po, pigs, formulation delivered directly to the duodenum, read-out: bioavailability of oxytocin (absolute / average oral)
Experimental: All animal procedures were conducted in accordance with protocols approved by the Massachusetts Institute of Technology Committee on Animal Care. […] Pharmacokinetic validation was performed in vivo. […] Serial blood sampling from the peripheral veins was performed for quantification of oxytocin. For oxytocin serum quantification, an Oxytocin ELISA kit (Cat. no. ab133050, Abcam) was used according to the manufacturer's protocol. […]
experimental_endpoint: bioavailability (%)
Number in %, nothing else.

bioavailability measured on "CC[C@H](C)[C@@H]1NC(=O)[C@H](Cc2ccc(O)cc2)NC(=O)[C@@H](N)CSSC[C@@H](C(=O)N2CCC[C@H]2C(=O)N[C@@H](CC(C)C)C(=O)NCC(N)=O)NC(=O)[C@H](CC(N)=O)NC(=O)[C@H](CCC(N)=O)NC1=O" = 0.64
